protocol.text: HepG2 cytotoxicity, primary screen, cytotoxicity control for P. falciparum antimalarial project, cell-based, ATP luminescence (AID 2303);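 further: 0% = DMSO wells and 100% = digitonin-killed cells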
assay.conditions: HepG2 viability, 24-48 h, at 10 µM, active compounds read high
Listing of recorded inhibition by entry.
Write the answer as a number in %, unit excluded.

Would you please look over these solved cases?
FC(F)(F)Oc1cccc(CNc2noc(-c3sccc3Br)n2)c1	0
CCOC(=O)c1cnc2c(OC)cc(OC)c(Cl)c2c1Nc1cccc(C)c1C	5

Below: the item to evaluate.
Inquiry: Which inhibition is listed for COc1ccc(-c2ccc(NC(=O)c3ccc(Cl)cc3)cc2)cc1CN1CCN(C)CC1 ?
Reply text: 36
